SYSTEM UNDER TEST: T1, WT-PmrA (Klebsiella pneumoniae, UniProt W9BNR5 1-223)
T1 sequence: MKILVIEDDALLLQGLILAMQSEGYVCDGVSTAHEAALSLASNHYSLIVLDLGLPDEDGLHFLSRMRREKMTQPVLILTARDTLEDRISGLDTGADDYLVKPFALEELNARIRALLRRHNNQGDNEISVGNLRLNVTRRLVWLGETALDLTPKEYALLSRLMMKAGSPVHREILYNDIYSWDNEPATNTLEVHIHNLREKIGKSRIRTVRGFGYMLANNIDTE
ASSAY TEXT: fluorescence polarization; BeF3-, Mg2+ (activation); FP: 10 mM sodium phosphate, 15 mM NaCl, pH 7.0, 298 K, 6 nM FAM-DNA; proteins activated with 5.3 mM BeCl2, 35 mM NaF, 7 mM MgCl2. NMR: 20 mM Tris-HCl, 100 mM Na
PROPERTY LABEL: Kd (nM)
Give a bare numeral; the unit nM is implied.

Q: // fetch Kd given entry 25-bp FAM-labelled DNA (FP) (dsDNA) DNA 1: ATTTCTTAATATTATCCTAAGCAAG DNA 2: TTGCTTAGGATAATATTAAGAAATC
Ans: 194
